# targetUnderTest: UniProt O14965
# Sequence (O14965 whole entry, looked up): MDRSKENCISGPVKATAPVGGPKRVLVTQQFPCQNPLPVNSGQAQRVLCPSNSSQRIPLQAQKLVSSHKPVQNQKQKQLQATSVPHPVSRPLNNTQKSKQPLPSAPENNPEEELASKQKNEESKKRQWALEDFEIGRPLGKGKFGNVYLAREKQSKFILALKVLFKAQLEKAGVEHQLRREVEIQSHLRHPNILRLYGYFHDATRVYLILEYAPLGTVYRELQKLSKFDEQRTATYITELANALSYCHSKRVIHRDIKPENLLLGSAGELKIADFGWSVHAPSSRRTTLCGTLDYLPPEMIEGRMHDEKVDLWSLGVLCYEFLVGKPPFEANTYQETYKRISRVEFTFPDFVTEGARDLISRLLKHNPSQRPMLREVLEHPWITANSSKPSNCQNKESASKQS
# protocolDetails: KINOMEscan competition binding
# conditionNotes: compound 10.0 µM
Exercise: state measured kinase still bound, per cent of control for each of the molecules provided.
Numbers only, in %.

Study these solved cases before continuing.
{"smilesStructure": "CN1C(=O)c2ccccc2N(C)c2nc(Nc3ccc(N4CCC(O)CC4)cn3)ncc21", "unitsLabel": "%", "reportedResult": 8.2}
{"smilesStructure": "CN1C(=O)c2ccccc2N(C)c2nc(NS(=O)(=O)c3ccc(N)cc3)ncc21", "unitsLabel": "%", "reportedResult": 100}
{"smilesStructure": "O=C1NC(=O)/C(=C/c2c[nH]c(=O)c(-c3ccc(N4CCNCC4)nc3)c2)S1", "unitsLabel": "%", "reportedResult": 100}
{"smilesStructure": "CN1C(=O)[C@H]2CCC[C@H]2N(C2CCCC2)c2nc(Nc3ccc4ncccc4c3)ncc21", "unitsLabel": "%", "reportedResult": 11}

Items follow; give kinase still bound, per cent of control for each.
1. COc1cc(N2CCN(C)CC2)ccc1Nc1ncc2c(n1)N(C)c1sccc1C(=O)N2C
2. CN1C(=O)[C@H]2CCC[C@H]2N(C2CCCC2)c2nc(Nc3ccc(C(N)=O)cc3)ncc21
3. COc1cc(N2CCC(O)CC2)ccc1Nc1ncc2c(n1)N1CCc3cccc(c31)C(=O)N2C

Reply:
75
7.6
23
